ASSAY_PROTOCOL: P. aeruginosa biofilm formation inhibitors, primary screen, PAO1 strain, BacTiter-Glo luminescence, LB-PBS (AID 1144)
CONDITION_NOTES: 12 h, higher = more signal

| MOLECULE | z-score |
| --- | --- |
| CCOC(=O)CCN1C(=O)[C@H]2[C@H]3[C@H](O)[C@H](O)CC(=NOCC(C)C)[C@H]3CC[C@H]2C1=O | 0.256 |
| CCOC(=O)[C@H](CC(C)C)NC(=O)CCC1CC(OC(=O)NCc2cccc3ccccc23)CC2(CCCC(COC(=O)NCCC(C)C)O2)O1 (stereo partly drawn) | -1.52 |
| CC(C)=NOC[C@@H](C)[C@H](OCc1ccccc1)C(C)C | -0.181 |
| CC(C)=NO[C@H](C)c1cn([C@H](CO)Cc2ccccc2)nn1 | 0.159 |
| CCOC(=O)NN=C1C[C@@H](O)[C@@H](O)[C@@H]2[C@@H]3C(=O)N(c4ccc(F)cc4F)C(=O)[C@@H]3CC[C@@H]12 | 0.449 |
| CO[C@H]1COC(=O)CCC[C@@H](C)[C@H](OC)COC(=O)[C@@H](C)NC(=O)CC=C[C@@H]1C | -0.231 |
| O=C1CCCC=C1C(O)CCCCBr (stereo not drawn) | -0.548 |
| CCOC(=O)[C@H](CC(C)C)NC(=O)CCC1CC(OC(=O)NCc2cccc3ccccc23)CC2(CCCC(COC(=O)NCCOC)O2)O1 (stereo partly drawn) | -0.656 |

###

Test system: Noggin (protein binding on small-molecule microarray)
ASSAY_PROTOCOL: Noggin binders on small-molecule microarray, primary screen, biochemical, 635/667 nm fluorescence (AID 1095);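 note: score merges 667 nm feature fluorescence with signal to noise over triplicate slides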
CONDITION_NOTES: 635 nm fluorescence, higher = more signal
Use rule met when the recorded composite z-score is no lower than 0.6; use rule not met when it is lower.

| COMPOUND | ANSWER_LABEL |
| --- | --- |
| CCOC(=O)[C@H](CC(C)C)NC(=O)CCC1CC(OC(=O)NCc2ccc3c(c2)OCO3)CC2(CCCC(COC(=O)NCC3CCCCC3)O2)O1 (stereo partly drawn) | rule not met |
| Cc1cc2c(nc1C)CCCCN2CC(C)ON=C1[C@H]2CCn3c(=O)n(-c4ccccc4)c(=O)n3[C@H]2[C@H](O)[C@@H]2O[C@H]12 (stereo partly drawn) | rule not met |
| COc1cc(O)c(C(=O)C=Cc2ccc3c(c2)OCO3)c(OC)c1 | rule not met |
| CC(C)(C)N1C(=O)[C@H]2[C@H]3[C@H](O)C=CC(=O)[C@@H]3CC[C@H]2C1=O | rule met |
| C#CCCCON=C1C[C@@H](O)[C@@H](O)[C@@H]2[C@@H]3C(=O)N(C(C)(C)C)C(=O)[C@@H]3CC[C@@H]12 | rule not met |
| O=C1OCCC=C1C(O)CCc1ccccc1 (stereo not drawn) | rule not met |
| COC(=O)CC=C[C@@H](C)[C@@H](C=NO[C@H](C)c1cn([C@H](CO)Cc2ccccc2)nn1)NS(=O)(=O)c1ccc(C)cc1 | rule met |
| COc1cccc([C@H]2Oc3ccc(OC)cc3C(=NOC[C@@H](O)COCc3ccco3)[C@@H]2O)c1 | rule not met |
| COc1ccc(O[C@H]2C=C[C@@H](c3ccccc3)O[C@@H]2CON=C2[C@H]3CCn4c(=O)n(-c5ccccc5)c(=O)n4[C@H]3[C@H](O)[C@@H]3O[C@H]23)cc1 | rule not met |
| CO[C@H]1COC(=O)CC=C[C@@H](C)[C@H](OC)COC(=O)CCC[C@@H]1C | rule met |
| CC(C)(C)N1C(=O)[C@H]2[C@H]3[C@H](O)[C@H](O)CC(=O)[C@@H]3CC[C@H]2C1=O | rule not met |
| O=C(NN=C1C[C@@H](O)[C@@H](O)[C@@H]2[C@@H]3C(=O)N(Cc4ccccc4)C(=O)[C@@H]3CC[C@@H]12)OCc1ccccc1 | rule not met |
| CON=CC[C@@H]1C=C[C@H](OC(C)=O)[C@@H](COC(C)=O)O1 | rule not met |
